PROPERTY MEASURED: melting point

Could you tell me which melting point is on file for CCOC(=O)Cn1nc2ccc(Cl)nn2c1=O ?
114 to 115 °C

Thanks! And COCOc1cc2c(c3ccccc13)Nc1ccccc1S2 ?
103 °C

Thanks! And Cc1ccc2c(c1)NC(=O)c1cc(C)sc1O2 ?
175 to 179 °C

Thanks! And CC(C)(C)OC(=O)N[C@@H]1CN(C2CCCCC2)c2ccccc2NC1=O ?
156 to 159 °C

Thanks! And CC(C)CNC(=O)[C@H](C)C[C@H](O)[C@H](CC1CCCCC1)NC(=O)OC(C)(C)C ?
125 to 126 °C

Thanks! And Cc1ccc2c(c1)C(=O)c1nc3ccccc3c(=O)n1-2 ?
283 to 285 °C

Thanks! And COc1cnc(OC(c2ccccc2)(c2ccccc2)c2ccccc2)cc1OC1CCCC1 ?
132 to 133 °C

Thanks! And CCCS(=O)C1(S(=O)(=O)NC(C)(C)C)C=CC=CN1 (stereo not given) ?
138 to 140 °C

Thanks! And O=C(OCC1OC(n2cc(F)c(=O)[nH]c2=O)C(O)C1O)C1CCCN1C(=O)OCc1ccccc1 (stereo not given) ?
137 to 144 °C

Thanks! And CCCC12CCC3=C(CCc4cc(OC)ccc43)C1CCC21OCCO1 (stereo not given) ?
119 to 120 °C

Thanks! And Cc1nnc2n1-c1ccc(Cl)cc1C(c1ccccc1)S2 (stereo not given) ?
237 °C

Thanks! And O=C(CNc1ccccc1)Nc1cc(Cl)ccc1C(=O)O ?
229 to 230 °C

Thanks! And CCc1cn(C2OC(CO)C(O)C2O)c(=O)[nH]c1=O (stereo not given) ?
180 to 181 °C

Thanks! And CN1Cc2c(Cl)ncn2-c2ccc(F)cc2C1=O ?
217 to 218 °C

Thanks! And CNC(=O)c1cc(F)ccc1CNC(=O)c1nc2n(c(=O)c1OCc1ccccc1)CCN2c1ccccc1 ?
194 to 195 °C

Thanks! And Cc1cc2c(-c3ccccc3)c(COS(C)(=O)=O)n(C)c(=O)c2cc1C ?
150 to 151 °C

Thanks! And O=C1CCC(c2ccc(N=C(CCc3ccccc3)c3ccc(O)cc3O)cc2)=NN1 ?
208 to 210 °C

Thanks! And CCCCOc1nn(-c2ccc(C(F)(F)F)cn2)cc1CCCOc1ccc(CCC(=O)O)c(OCC)c1 ?
102 to 103 °C

Thanks! And COC(=O)CCC#Cc1ccccc1[N+](=O)[O-] ?
44 to 46 °C

Thanks! And COc1ccc(C)cc1NC(=O)Nc1ccc(C2CCN(C(=O)Nc3ncccc3CO)CC2)cc1 ?
105 to 110 °C

Origin of measurements: a melting point compilation (Tetko et al.; mined from patent text by program, amines drawn as free bases though some values may be those of a salt)
